# pIC50 annotations
molecular target: HLA-A*24:02; assay: IEDB peptide-MHC binding, purified MHC/competitive/fluorescence; bounds were set here for any values at or beyond the usual limits of such assays; conditions: source organism: Zaire ebolavirus
pIC50: −log10 of the molar value.

{"primarySequence": "PTAWQSVGH", "prefixOperator": "=", "pIC50": 4.54}
{"primarySequence": "PVYQVNNLE", "prefixOperator": "≤", "pIC50": 4.00}
{"primarySequence": "CLPAAPDGI", "prefixOperator": "=", "pIC50": 4.43}
{"primarySequence": "TSFFLWVII", "prefixOperator": "≤", "pIC50": 3.88}
{"primarySequence": "LFPQLSAIA", "prefixOperator": "=", "pIC50": 4.86}
{"primarySequence": "RYVHKVSGT", "prefixOperator": "=", "pIC50": 5.18}
{"primarySequence": "MDSRPQKIW", "prefixOperator": "=", "pIC50": 4.17}
{"primarySequence": "LSFASLFLP", "prefixOperator": "=", "pIC50": 4.95}
{"primarySequence": "IVKTVLDHI", "prefixOperator": "=", "pIC50": 5.17}
{"primarySequence": "YWPVMNHKN", "prefixOperator": "=", "pIC50": 5.15}
{"primarySequence": "KRDGVKRLE", "prefixOperator": "≤", "pIC50": 3.76}
{"primarySequence": "QSVGHMMVI", "prefixOperator": "=", "pIC50": 5.42}

* * *

target: HLA-A*26:01; assay: IEDB peptide-MHC binding, purified MHC/direct/fluorescence; filed as Kd, often an IC50 or EC50 that approximates it; bounds were set here for any values at or beyond the usual limits of such assays; details: source organism: Pseudomonas putida
endpointLabel: Kd

{"primarySequence": "RVWRGEQGK", "targetOfAssay": "HLA-A*26:01", "endpointLabel": "Kd", "observedMeasurement": "≥ 20 µM"}

* * *

molecular target: HLA-B*38:01; experiment: IEDB peptide-MHC binding, purified MHC/direct/fluorescence; filed as Kd, often an IC50 or EC50 that approximates it; bounds were set here for any values at or beyond the usual limits of such assays; details: source organism: Mycobacterium tuberculosis str. Haarlem

{"primarySequence": "RVEESRARL", "targetOfAssay": "HLA-B*38:01", "Kd": "≥ 20 µM"}

* * *

target: HLA-A*02:19; test: IEDB peptide-MHC binding, purified MHC/competitive/fluorescence; filed as Kd, often an IC50 or EC50 that approximates it; bounds were set here for any values at or beyond the usual limits of such assays; details: source organism: Cryptosporidium parvum Iowa II
pKd: −log10 of the molar value.
endpointLabel: pKd

{"primarySequence": "KLYLRPWWH", "observedMeasurement": "≤ 4.70"}

* * *

biological target: HLA-B*53:01; test: IEDB peptide-MHC binding, purified MHC/competitive/radioactivity; filed as Kd, often an IC50 or EC50 that approximates it; bounds were set here for any values at or beyond the usual limits of such assays; settings: source organism: Dengue virus 3 Sri Lanka/1266/2000
endpointLabel: Kd (nM)

{"primarySequence": "AAVEDEEFW", "unitsOfMeasure": "nM", "observedMeasurement": 10.7}

* * *

molecular target: HLA-A*02:06; assay: IEDB peptide-MHC binding, purified MHC/competitive/fluorescence; filed as Kd, often an IC50 or EC50 that approximates it; bounds were set here for any values at or beyond the usual limits of such assays; details: source organism: Vaccinia virus WR

{"primarySequence": "EYYFRNEVF", "targetOfAssay": "HLA-A*02:06", "Kd [nM]": 153}

Taken from the Immune Epitope Database (IEDB).
